Test system: IKK-beta;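 also: KINOMEscan kinase panel screen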
Construct: gene IKBKB
Conditions: concentration: 1 μM, replicates: in singlicate; n = 1
quantity measured: %Inh (%)
One number for each entry, in %.

Illustrative cases are given below, each with its answer.
- molecule: "O=c1[nH]cc(-c2ccc(N3CCOCC3)cc2)c2sc(-c3cn[nH]c3)cc12"
  output unit: "%"
  number: 11
- molecule: "CC(C)(C)c1ccc2nccc(Nc3cccc(O)c3)c2c1"
  output unit: "%"
  number: 0
- molecule: "COc1cc(Nc2ncc3c(C)nc(-c4cc5ccccc5[nH]4)n3n2)cc(OC)c1OC"
  output unit: "%"
  number: 0
- molecule: "O=C(Nc1cccc(-c2nn3ncccc3c2-c2ccnc(Nc3ccccc3)n2)c1)c1c(F)cccc1F"
  output unit: "%"
  number: 0

Each of the following entries comes with a recorded value; kindly state %Inh for each.
1. Nc1ncnc2c1nc(-c1ccccc1)n2-c1ccccc1
2. O=C(Nc1cccc(Oc2ccc3nc(NC(=O)C4CC4)cn3n2)c1)c1ccccc1C(F)(F)F
3. CCn1c(-c2nonc2N)nc2c(C#CC(C)(C)O)ncc(OCCCCN)c21.O=C(O)C(F)(F)F.O=C(O)C(F)(F)F
4. CC(=O)Nc1nc2cnc(Nc3cc(NC(=O)c4cccc(C5(C#N)CC5)c4Cl)ccc3C)nc2s1
5. Cc1ccc(C(=O)N2CC[C@@H](O)C2)cc1-n1c(C)cc(OCc2ccc(F)cc2F)c(Br)c1=O
6. Cl.c1ccc(-c2ccc3c(Nc4ccc5[nH]ccc5c4)ccnc3c2)nc1
7. CC(C)c1nc(-c2cccc(NS(=O)(=O)c3c(F)cccc3F)c2F)c(-c2ccnc(Nc3ccc(N4CCOCC4)nc3)n2)s1

stdout:
[44, 0, 43, 6, 0, 8, 4]

Each of the following entries comes with a recorded value; kindly state %Inh for each.
1. Cn1cc(-c2[nH]c3cc(NC(=O)[C@H](N)C4CCCCC4)cc4c3c2C=NNC4=O)cn1
2. O=C(Nc1ccccc1F)NC1CCN(c2ccnc(Nc3ccc(F)cc3)n2)CC1
3. Oc1cc(Nc2ccnc3cc(I)ccc23)ccc1F
4. C[C@@H]1CC[C@@H](C(=O)Nc2ccccc2)CN1c1cc(-c2ccc3c(N)n[nH]c3c2)nc(N)n1
5. CN(C)Cc1ccc(-c2ccc3c(Nc4ccc(Oc5ccccn5)cc4)ccnc3c2)o1
6. COC(=O)Nc1nc2cc(Oc3ccc(NC(=O)Nc4cc(C(F)(F)F)ccc4F)cn3)ccc2[nH]1.Cl.Cl

stdout:
[10, 0, 19, 0, 7, 17]

Each of the following entries comes with a recorded value; kindly state %Inh for each.
1. Clc1ccc(-c2nn3ncccc3c2-c2ccnc(Nc3ccc4c(c3)OCCO4)n2)cc1
2. CCS(=O)(=O)c1ccc(OC)c(Nc2nccc(-c3c(-c4cccc(NC(=O)c5c(F)cccc5F)c4)nn4ncccc34)n2)c1
3. COc1cc(Nc2nccc(-c3c(-c4cccc(NC(=O)c5c(F)cccc5F)c4)nn4ccccc34)n2)cc(OC)c1OC

stdout:
1: 0; 2: 27; 3: 25

Each of the following entries comes with a recorded value; kindly state %Inh for each.
1. CN(c1ccc(NC(=O)Nc2cc(C(F)(F)F)ccc2F)cc1)c1ccnc(Nc2ccc(S(N)(=O)=O)cc2)n1
2. CN1CCN(CCCNc2nccc(-c3c(-c4ccc(F)cc4)nn4cc(C(F)(F)F)ccc34)n2)CC1
3. NCCCC(NC(=O)c1cc(Br)c(-c2ccnc3[nH]ccc23)s1)c1ccccc1.O=C(O)C(F)(F)F.O=C(O)C(F)(F)F (centres unmarked)
4. Nc1ncc(-c2ccc3nccc(-c4ccncc4)c3c2)cc1S(=O)(=O)N1CCOCC1
5. CN(C)S(=O)(=O)c1cc(-c2ccc3nccc(-c4cccc(S(N)(=O)=O)c4)c3c2)cnc1N

stdout:
44
23
58
9
0
